- EXPERIMENTAL SYSTEM: Protein kinase C eta type (Homo sapiens)
- Sequence (P24723 whole entry): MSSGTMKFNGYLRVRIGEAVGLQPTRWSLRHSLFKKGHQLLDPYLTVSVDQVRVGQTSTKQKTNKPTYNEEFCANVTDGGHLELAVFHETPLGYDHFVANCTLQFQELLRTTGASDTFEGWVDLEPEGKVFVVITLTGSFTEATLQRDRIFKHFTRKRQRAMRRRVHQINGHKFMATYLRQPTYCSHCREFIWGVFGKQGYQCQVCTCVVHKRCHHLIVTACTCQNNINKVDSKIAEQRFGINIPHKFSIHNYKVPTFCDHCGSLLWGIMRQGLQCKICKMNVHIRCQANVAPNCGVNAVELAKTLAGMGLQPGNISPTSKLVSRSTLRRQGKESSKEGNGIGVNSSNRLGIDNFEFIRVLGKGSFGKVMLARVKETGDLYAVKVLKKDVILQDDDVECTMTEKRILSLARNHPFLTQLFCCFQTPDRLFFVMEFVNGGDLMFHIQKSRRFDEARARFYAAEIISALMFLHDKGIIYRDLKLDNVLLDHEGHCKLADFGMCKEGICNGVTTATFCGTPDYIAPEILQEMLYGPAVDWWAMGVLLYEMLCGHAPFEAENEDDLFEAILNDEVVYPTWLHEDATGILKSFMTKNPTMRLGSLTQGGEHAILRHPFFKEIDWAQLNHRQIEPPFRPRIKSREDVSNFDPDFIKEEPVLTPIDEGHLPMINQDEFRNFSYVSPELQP
EXPERIMENTAL ENDPOINT: pIC50
// scale note: pIC50 = -log10(conc_M); give the bare number

q: Provide value of pIC50 for this record tested with Protein kinase C eta type (Homo sapiens): COC(=O)c1cccc(O)c1Oc1c(O)cc(C(=O)O[C@@H]2CCC[C@H]2NC(=O)c2ccc(O)cc2)cc1O
a: 8.40

====

- EXPERIMENTAL SYSTEM: Protein kinase C epsilon type (Homo sapiens)
- Sequence (Q02156 whole entry): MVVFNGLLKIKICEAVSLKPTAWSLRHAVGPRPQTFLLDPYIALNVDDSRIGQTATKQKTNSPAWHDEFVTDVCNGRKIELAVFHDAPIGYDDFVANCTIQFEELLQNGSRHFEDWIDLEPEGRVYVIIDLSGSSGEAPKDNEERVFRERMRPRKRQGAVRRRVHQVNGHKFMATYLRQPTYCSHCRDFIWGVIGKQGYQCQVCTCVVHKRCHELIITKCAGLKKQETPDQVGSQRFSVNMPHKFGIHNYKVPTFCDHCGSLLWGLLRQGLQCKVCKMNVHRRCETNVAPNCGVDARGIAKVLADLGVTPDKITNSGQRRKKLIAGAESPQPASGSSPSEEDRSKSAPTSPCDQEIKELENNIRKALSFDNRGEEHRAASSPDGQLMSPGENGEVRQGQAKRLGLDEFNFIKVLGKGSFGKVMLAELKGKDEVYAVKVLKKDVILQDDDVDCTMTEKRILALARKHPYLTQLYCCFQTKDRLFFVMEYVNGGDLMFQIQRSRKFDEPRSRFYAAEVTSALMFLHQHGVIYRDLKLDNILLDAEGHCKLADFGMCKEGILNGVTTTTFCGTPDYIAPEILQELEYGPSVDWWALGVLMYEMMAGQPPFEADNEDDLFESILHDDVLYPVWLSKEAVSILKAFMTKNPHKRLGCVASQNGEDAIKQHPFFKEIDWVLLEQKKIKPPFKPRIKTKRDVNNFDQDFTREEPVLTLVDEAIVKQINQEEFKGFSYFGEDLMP
EXPERIMENTAL ENDPOINT: pIC50
// scale note: pIC50 = -log10(conc_M); give the bare number

q: Provide value of pIC50 for this record tested with Protein kinase C epsilon type (Homo sapiens): COC(=O)c1cccc(O)c1Oc1c(O)cc(C(=O)O[C@@H]2CCC[C@H]2NC(=O)c2ccc(O)cc2)cc1O
a: 6.52
